// values below are reported relative cell viability
test system: HL-1; assay: relative cell viability (CellTiter-Glo) vs DMSO control (% of DMSO control); higher = more viable cells; settings: oxygen condition: normoxia 72 h; 5000 nM
Where a name gives a salt, the structure may show the parent alone.
Lab note: write the figure by itself, no unit.

Field: example entries. Status: answers known.
# compound, relative cell viability
rows = [
    ("CN(C)C(=N)NC(=N)N [Metformin hydrochloride]", 109),
    ("Nc1cc(C(Cl)=C(Cl)Cl)c(S(N)(=O)=O)cc1S(N)(=O)=O [Clorsulon]", 110),
    ("Cc1ccc(S(=O)(=O)NC(=O)NN2CCCCCC2)cc1 [Tolazamide]", 117),
    ("CNC(=O)CN(CCN(CCN(CC(=O)[O-])CC(=O)NC)CC(=O)[O-])CC(=O)[O-].[Gd+3] [Gadodiamide]", 112),
]

Request: Look at this compound and give its reported relative cell viability. CCCC(=O)O[C@]1(C(=O)COC(C)=O)CC[C@H]2[C@@H]3C[C@H](F)C4=CC(=O)C=C[C@]4(C)[C@@]3(F)[C@@H](O)C[C@@]21C [Difluprednate]
Result: 102

Request: # get_value(readout='relative cell viability', item= CC1=C(/C=C/C(C)=C/C=C/C(C)=C\C(=O)O)C(C)(C)CCC1 [Isotretinoin] )
Result: 112

Request: Param item = CCCN[C@H]1CCc2nc(N)sc2C1 [Pramipexole dihydrochloride monohydrate] ; retrieve measured relative cell viability.
Result: 110

Request: # relative cell viability lookup, item Cn1c(=O)c2c(ncn2CC2OCCO2)n(C)c1=O [Doxofylline]
Result: 122

Request: Can you look up the measured relative cell viability of CC[C@H]1OC(=O)C[C@@H](O)[C@H](C)[C@@H](O[C@@H]2O[C@H](C)[C@@H](O[C@H]3C[C@@](C)(O)[C@@H](O)[C@H](C)O3)[C@H](N(C)C)[C@H]2O)[C@@H](CC=O)C[C@@H](C)C(=O)/C=C/C(C)=C/[C@@H]1CO[C@@H]1O[C@H](C)[C@@H](O)[C@@H](OC)[C@H]1OC [Tylosin tartrate] for me?
Result: 91.8

Request: Returns the measured relative cell viability for the input compound. Input: COC(=O)C1=C(C#N)NC(C)=C(C(=O)OC(C)C)C1c1cccc([N+](=O)[O-])c1 (configuration not stated) [Nilvadipine]
Result: 108

Request: Given CN(C)[C@@H](CCOc1cccc2ccccc12)c1ccccc1 [Dapoxetine hydrochloride] , state its recorded relative cell viability.
Result: 76.3

Request: Record request: relative cell viability value, item Nc1ncnc2c1ncn2[C@@H]1O[C@H](CO)[C@@H](O)[C@H]1O [Adenosine]
Result: 110

----------
Reported relative cell viability values are given for each entry in this list.
tested on: HL-1; test: relative cell viability (CellTiter-Glo) vs DMSO control (% of DMSO control); higher = more viable cells; details: oxygen condition: hypoxia 48 h (1% O2) + reoxygenation 24 h; 40 nM
Counter-ions that a name gives are not always drawn.
Write no unit; give the number alone.

# compound, measuredNumber
measured = [
    ("O=c1oc2cc(O)ccc2s1", 106),
    ("O=P(O)(O)C(O)(Cc1cccnc1)P(=O)(O)O [Risedronate sodium]", 103),
    ("CCCCC(=O)N(Cc1ccc(-c2ccccc2-c2nnn[nH]2)cc1)[C@H](C(=O)O)C(C)C", 104),
]

Request: Find the recorded relative cell viability belonging to CC(C)c1nc(CN(C)C(=O)N[C@@H](CCN2CCOCC2)C(=O)N[C@H](CC[C@H](Cc2ccccc2)NC(=O)OCc2cncs2)Cc2ccccc2)cs1 [Cobicistat] and report it.
Result: 109

Request: Value lookup for relative cell viability; key = CN[C@H](CC(C)C)C(=O)N[C@H]1C(=O)N[C@@H](CC(N)=O)C(=O)N[C@H]2C(=O)N[C@H]3C(=O)N[C@H](C(=O)N[C@H](C(=O)O)c4cc(O)cc(O)c4-c4cc3ccc4O)[C@H](O)c3ccc(c(Cl)c3)Oc3cc2cc(c3O[C@@H]2O[C@H](CO)[C@@H](O)[C@H](O)[C@H]2O[C@H]2C[C@](C)(N)[C@H](O)[C@H](C)O2)Oc2ccc(cc2Cl)[C@H]1O [Vancomycin HCl]
Result: 105

Request: Any idea what its relative cell viability is? The compound is O=S(=O)(O)CCS
Result: 105

Request: Any idea what relative cell viability was measured for NC(=O)c1cn(Cc2c(F)cccc2F)nn1 [Rufinamide] ?
Result: 103

Request: Query (compound): CN1CCC(=C2c3ccccc3C=Cc3ccccc32)CC1 [Cyproheptadine HCl] ; field requested: relative cell viability
Result: 97.1

Request: Dear colleague, I am looking for the recorded relative cell viability of the following compound: Cc1ccc(C(=O)C(C)CN2CCCCC2)cc1 (configuration not stated) [Tolperisone HCl]
Result: 107

Data provenance: the supplement of paper PMC8371130
